- Measurement Target: CFTR-mediated chloride transport (Homo sapiens)
- Sequence (P13569 whole entry, looked up): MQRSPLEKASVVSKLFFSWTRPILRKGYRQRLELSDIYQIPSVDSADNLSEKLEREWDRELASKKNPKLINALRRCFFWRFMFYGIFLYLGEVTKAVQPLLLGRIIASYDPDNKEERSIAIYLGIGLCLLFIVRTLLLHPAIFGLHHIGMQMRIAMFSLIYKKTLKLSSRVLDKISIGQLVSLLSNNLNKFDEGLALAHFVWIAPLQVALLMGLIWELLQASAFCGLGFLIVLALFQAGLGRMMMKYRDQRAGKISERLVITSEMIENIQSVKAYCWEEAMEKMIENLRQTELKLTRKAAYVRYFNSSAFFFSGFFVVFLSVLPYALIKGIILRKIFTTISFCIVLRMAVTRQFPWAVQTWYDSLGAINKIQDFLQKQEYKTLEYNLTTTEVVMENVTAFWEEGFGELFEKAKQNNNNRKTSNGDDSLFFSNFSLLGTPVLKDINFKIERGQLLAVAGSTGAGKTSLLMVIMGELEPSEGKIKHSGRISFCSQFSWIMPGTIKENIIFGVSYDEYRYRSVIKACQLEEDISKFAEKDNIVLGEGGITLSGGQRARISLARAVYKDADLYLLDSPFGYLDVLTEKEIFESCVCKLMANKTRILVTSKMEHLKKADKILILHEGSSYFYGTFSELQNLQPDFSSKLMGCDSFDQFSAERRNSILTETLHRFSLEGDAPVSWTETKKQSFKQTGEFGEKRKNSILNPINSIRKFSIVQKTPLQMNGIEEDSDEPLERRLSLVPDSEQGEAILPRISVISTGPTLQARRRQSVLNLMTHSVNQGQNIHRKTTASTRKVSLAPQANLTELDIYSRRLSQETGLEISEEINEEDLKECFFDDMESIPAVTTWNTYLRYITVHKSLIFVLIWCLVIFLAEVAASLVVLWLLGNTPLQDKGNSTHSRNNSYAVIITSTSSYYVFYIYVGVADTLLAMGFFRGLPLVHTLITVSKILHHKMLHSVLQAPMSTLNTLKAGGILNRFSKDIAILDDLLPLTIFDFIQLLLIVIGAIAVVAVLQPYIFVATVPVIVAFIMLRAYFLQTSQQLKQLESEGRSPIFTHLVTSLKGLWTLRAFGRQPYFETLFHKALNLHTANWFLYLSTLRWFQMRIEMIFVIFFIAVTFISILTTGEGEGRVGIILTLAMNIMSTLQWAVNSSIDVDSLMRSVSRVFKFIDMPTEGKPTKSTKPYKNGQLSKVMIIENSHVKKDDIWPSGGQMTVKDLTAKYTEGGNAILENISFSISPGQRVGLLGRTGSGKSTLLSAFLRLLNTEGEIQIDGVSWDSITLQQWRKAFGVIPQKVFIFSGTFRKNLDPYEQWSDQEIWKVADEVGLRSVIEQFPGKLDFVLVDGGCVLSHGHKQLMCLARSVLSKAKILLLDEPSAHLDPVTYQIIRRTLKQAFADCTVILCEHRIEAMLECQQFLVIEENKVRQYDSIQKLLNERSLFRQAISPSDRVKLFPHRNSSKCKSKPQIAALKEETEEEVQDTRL
- Measurement Setup: enteroid cells incubated with test compound 18-24 hours; acute 10 μM forskolin and 300 nM Compound III
Result Type: EC50

Here's what some known entries look like.
CC1(C)C[C@H]2CCCCn3ccc(n3)S(=O)(=O)NC(=O)c3ccc(-n4ccc(OCCC5(C(F)(F)F)CC5)n4)nc3N1C2 (single isomer, unassigned) [Compound 45] = < 1000 nM
CC1(C)C2CCNc3cccc(n3)S(=O)(=O)NC(=O)c3ccc(-n4ccc(OCCC5(C(F)(F)F)CC5)n4)nc3N1CC2 (stereo not shown) = > 3000 nM
CC1(C)CC2CCCCc3cccc(c3)S(=O)(=O)NC(=O)c3ccc(-n4ccc(OCCC5(C(F)(F)F)CC5)n4)nc3N1C2 (stereo not shown) = < 1000 nM

Quick check: EC50 of CC1CCC2CN(c3nc(-n4ccc(OCCC5(C(F)(F)F)CC5)n4)ccc3C(=O)NS(=O)(=O)c3cccc(n3)N1)C(C)(C)C2 (stereo not shown) [Compound 36] ?
< 1000 nM

Quick check: EC50 of CC1(C)C[C@H]2CCCCCNc3cccc(n3)S(=O)(=O)NC(=O)c3ccc(-n4ccc(OCCC5(C(F)(F)F)CC5)n4)nc3N1C2 (single isomer, unassigned) [Compound 64] ?
< 1000 nM

Quick check: EC50 of CC1(C)CCC2CCCOc3cccc(n3)S(=O)(=O)NC(=O)c3ccc(-n4ccc(OCCC5(C(F)(F)F)CC5)n4)nc3N21 (stereo not shown) ?
< 1000 nM

Quick check: EC50 of CC1(C)CC2CN1c1nc(-n3ccc(OCCC4(C(F)(F)F)CC4)n3)ccc1C(=O)NS(=O)(=O)c1cccc(n1)NCCO2 (stereo not shown) ?
< 1000 nM

Quick check: EC50 of CC1(C)C[C@H]2CCCNc3cccc(n3)S(=O)(=O)NC(=O)c3ccc(-n4ccc(OCC5(C(F)(F)F)CC5)n4)nc3N1C2 (single isomer, unassigned) [Compound 21] ?
> 3000 nM

Quick check: EC50 of CC1(C)C[C@@H]2CCCNc3cccc(n3)S(=O)(=O)NC(=O)c3ccc(N4CCN(CC5CCC(F)(F)CC5)C4=O)nc3N1C2 ?
< 1000 nM
